Target: human p38 kinase alpha (Homo sapiens, UniProt Q16539)
Construct: The coding region of the human p38a cDNA was obtained by PCR-amplification from RNA isolated from the human monocyte cell line THP.1; GST (N); made in house; host or cells: E. coli DH10B
Sequence (Q16539 whole entry): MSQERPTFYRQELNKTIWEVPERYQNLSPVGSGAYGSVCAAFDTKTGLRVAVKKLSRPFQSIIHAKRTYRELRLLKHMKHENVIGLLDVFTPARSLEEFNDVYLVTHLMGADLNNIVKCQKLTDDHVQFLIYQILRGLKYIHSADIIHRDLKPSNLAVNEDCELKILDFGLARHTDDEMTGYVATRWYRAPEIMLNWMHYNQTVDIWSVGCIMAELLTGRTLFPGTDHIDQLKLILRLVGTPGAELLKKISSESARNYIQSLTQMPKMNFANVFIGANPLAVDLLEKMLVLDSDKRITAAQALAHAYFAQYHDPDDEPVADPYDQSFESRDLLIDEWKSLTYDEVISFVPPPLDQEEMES
Assay: p38 kinase in vitro assay, phosphorylation of biotinylated PHAS-I with gamma 32P-ATP
Type: biochemical
Settings: @ 1.0 uM; read-out: P38 alpha kinase % inhib @ conc.
Below: a set of entries, each annotated with reported inhibition at 1 µM.
endpoint: inhibition at 1 µM (%)

>>> print(df.to_string())
                        structure_as_smiles  recorded_result
0  O=[N+]([O-])c1ccccc1S(=O)(=O)NCc1[nH]nc(-c2ccc(F)cc2)c1-c1ccncc1               75
1  CCc1ccccc1NC(=O)NCc1[nH]nc(-c2ccc(F)cc2)c1-c1ccncc1               43
2  O=C(NCc1[nH]nc(-c2ccc(F)cc2)c1-c1ccncc1)c1cccc(OC(F)(F)F)c1               73
3  CCOC(=O)CCCC(=O)NCc1[nH]nc(-c2ccc(F)cc2)c1-c1ccncc1               91

----------
Biological target: human p38 kinase alpha (Homo sapiens, UniProt Q16539)
Construct: The coding region of the human p38a cDNA was obtained by PCR-amplification from RNA isolated from the human monocyte cell line THP.1; GST (N); made in house; host or cells: E. coli DH10B
Test: p38 kinase in vitro assay, phosphorylation of biotinylated PHAS-I with gamma 32P-ATP
Format: biochemical
Conditions: @ 1.0 uM; read-out: P38 alpha kinase % inhib @ conc.
Assign condition met to entries whose inhibition at 1 µM meets or exceeds 90%; assign condition not met to the rest.

In [3]: df
Out[3]:
                         structure_as_smiles  assigned_category
 0  O=C(OCc1ccccc1C(=O)NCc1[nH]nc(-c2ccc(F)cc2)c1-c1ccncc1)c1ccccc1      condition met
 1  COc1ccc(OC)c(S(=O)(=O)NCc2[nH]nc(-c3ccc(F)cc3)c2-c2ccncc2)c1  condition not met
 2  Cc1c(Cl)cccc1S(=O)(=O)NCc1[nH]nc(-c2ccc(F)cc2)c1-c1ccncc1  condition not met
 3  CCCCCCCCS(=O)(=O)NCc1[nH]nc(-c2ccc(F)cc2)c1-c1ccncc1  condition not met
 4  O=[N+]([O-])c1ccccc1CS(=O)(=O)NCc1[nH]nc(-c2ccc(F)cc2)c1-c1ccncc1      condition met
 5  Cc1cccc(C)c1NC(=O)NCc1[nH]nc(-c2ccc(F)cc2)c1-c1ccncc1  condition not met
 6  O=S(=O)(NCc1[nH]nc(-c2ccc(F)cc2)c1-c1ccncc1)c1ccc(Cl)cc1Cl  condition not met
 7  CC(C)c1ccc(S(=O)(=O)NCc2[nH]nc(-c3ccc(F)cc3)c2-c2ccncc2)cc1  condition not met
 8  O=C(NCc1[nH]nc(-c2ccc(F)cc2)c1-c1ccncc1)c1cc(F)ccc1F      condition met
 9  O=C(NCc1[nH]nc(-c2ccc(F)cc2)c1-c1ccncc1)C1CCC1      condition met
10  O=C(NCc1[nH]nc(-c2ccc(F)cc2)c1-c1ccncc1)Nc1ccccc1-c1ccccc1  condition not met
11  O=C(NCc1[nH]nc(-c2ccc(F)cc2)c1-c1ccncc1)c1ccc(Cl)c(Cl)c1  condition not met
12  N#Cc1ccccc1S(=O)(=O)NCc1[nH]nc(-c2ccc(F)cc2)c1-c1ccncc1  condition not met
13  COC(=O)CCCC(=O)NCc1[nH]nc(-c2ccc(F)cc2)c1-c1ccncc1  condition not met
14  O=S(=O)(NCc1[nH]nc(-c2ccc(F)cc2)c1-c1ccncc1)c1ccccc1F  condition not met

----------
Below: a set of entries, each annotated with reported inhibition at 1 µM.
Biological target: human p38 kinase alpha (Homo sapiens, UniProt Q16539)
Construct: The coding region of the human p38a cDNA was obtained by PCR-amplification from RNA isolated from the human monocyte cell line THP.1; GST (N); made in house; host or cells: E. coli DH10B
Test: p38 kinase in vitro assay, phosphorylation of biotinylated PHAS-I with gamma 32P-ATP
Format: biochemical
Conditions: @ 1.0 uM; read-out: P38 alpha kinase % inhib @ conc.
endpoint: inhibition at 1 µM (%)

>>> print(df.to_string())
                        structure_as_smiles  recorded_result
0  O=S(=O)(NCc1[nH]nc(-c2ccc(F)cc2)c1-c1ccncc1)c1cccc2ccccc12               57
1  COc1cc(C)c(S(=O)(=O)NCc2[nH]nc(-c3ccc(F)cc3)c2-c2ccncc2)c(C)c1C               41
2  COc1cccc(C(=O)NCc2[nH]nc(-c3ccc(F)cc3)c2-c2ccncc2)c1               91
3  COc1ccc(C(=O)NCc2[nH]nc(-c3ccc(F)cc3)c2-c2ccncc2)c(OC)c1               91

----------
System: TNF-α
Assay: Rat assay: LPS-challenged rats, serum TNF-α by ELISA
Type: in vivo
Settings: Rattus norvegicus, po, 1.0 mg/kg oral gavage, 4 hours before LPS challenge; read-out: ratLPS/% Inh @1.0 (mg/kg)
Structures can show the parent of a compound that is named as a salt.
Below: a set of entries, each annotated with reported inhibition in vivo at 1 mg/kg.
endpoint: inhibition in vivo at 1 mg/kg (%)

In [3]: df
Out[3]:
                                   compound  unit_string  recorded_result
0  O=C(CO)N1CCC(c2[nH]nc(-c3cccc(Cl)c3)c2-c2ccncn2)CC1            %               43
1  O=C(CO)N1CCC(c2[nH]nc(-c3ccc(F)cc3)c2-c2ccncn2)CC1            %               65
2  C[C@@H](O)C(=O)N1CCC(c2[nH]nc(-c3ccc(Cl)cc3)c2-c2ccncn2)CC1 [Example D-6, hydrochloride]            %               82
3  O=C(CO)N1CCC(c2[nH]nc(-c3ccc(Cl)cc3)c2-c2ccncn2)CC1            %               83
4  COCC(=O)N1CCC(c2[nH]nc(-c3ccc(Cl)cc3)c2-c2ccncn2)CC1 [Example D-3, (fumarate salt)]            %               69
5  O=C(CO)N1CCC(c2[nH]nc(-c3cccc(C(F)(F)F)c3)c2-c2ccncn2)CC1            %               53
6  O=C(CO)N1CCC(c2[nH]nc(-c3ccc(C(F)(F)F)cc3)c2-c2ccncn2)CC1            %                5
7  C[C@H](O)C(=O)N1CCC(c2[nH]nc(-c3ccc(Cl)cc3)c2-c2ccncn2)CC1 [Example D-5, hydrochloride]            %               65
8  O=C(CO)N1CCC(c2[nH]nc(-c3cccc(F)c3)c2-c2ccncn2)CC1            %               71
9  CC(C)(O)C(=O)N1CCC(c2[nH]nc(-c3ccc(Cl)cc3)c2-c2ccncn2)CC1 [Example D-4, hydrochloride]            %             42.3

----------
Molecular target: human p38 kinase alpha (Homo sapiens)
Construct: The coding region of the human p38a cDNA was obtained by PCR-amplification from RNA isolated from the human monocyte cell line THP.1; GST (N); made in house; host or cells: E. coli DH10B
Assay: p38 kinase in vitro assay, phosphorylation of biotinylated PHAS-I with gamma 32P-ATP
Assay type: biochemical
Settings: @ 10.0 uM; read-out: P38 alpha kinase % inhib @ conc.
Experimental: The ability of compounds to inhibit human p38 kinase alpha was evaluated using two in vitro assay methods. […] Following incubation, 20 μl of reaction mixture was transferred to a high capacity streptavidin coated filter plate (SAM-streptavidin-matrix, Promega) prewetted with phosphate buffered saline. […] The plates were sealed and counted.
Assign rule met to entries whose inhibition at 10 µM meets or exceeds 60%; assign rule not met to the rest.

                                    molecule  assigned_category
 0  CC(C)c1ccccc1NC(=O)NCc1[nH]nc(-c2ccc(F)cc2)c1-c1ccncc1       rule not met
 1  O=C(NCc1[nH]nc(-c2ccc(F)cc2)c1-c1ccncc1)Nc1ccc(F)cc1       rule not met
 2  O=C(NCc1[nH]nc(-c2ccc(F)cc2)c1-c1ccncc1)Nc1cc(Cl)cc(Cl)c1       rule not met
 3  COc1cc(OC)c(NC(=O)NCc2[nH]nc(-c3ccc(F)cc3)c2-c2ccncc2)cc1Cl       rule not met
 4  O=C(NCc1[nH]nc(-c2ccc(F)cc2)c1-c1ccncc1)Nc1cccc(Cl)c1Cl       rule not met
 5  COC(=O)c1ccccc1NC(=O)NCc1[nH]nc(-c2ccc(F)cc2)c1-c1ccncc1       rule not met
 6  O=C(NCCc1ccccc1)NCc1[nH]nc(-c2ccc(F)cc2)c1-c1ccncc1       rule not met
 7  CCOC(=O)c1ccc(NC(=O)NCc2[nH]nc(-c3ccc(F)cc3)c2-c2ccncc2)cc1           rule met
 8  O=S(=O)(/C=C\c1ccccc1)NCc1[nH]nc(-c2ccc(F)cc2)c1-c1ccncc1           rule met
 9  CC(NC(=O)NCc1[nH]nc(-c2ccc(F)cc2)c1-c1ccncc1)c1cccc2ccccc12 (centres unmarked)           rule met
10  CCCCCCCCCCS(=O)(=O)NCc1[nH]nc(-c2ccc(F)cc2)c1-c1ccncc1           rule met
11  O=C(NCc1[nH]nc(-c2ccc(F)cc2)c1-c1ccncc1)Nc1ccc(C(F)(F)F)cc1       rule not met
12  O=C(NCc1[nH]nc(-c2ccc(F)cc2)c1-c1ccncc1)Nc1ccc(-c2ccccc2)cc1       rule not met
13  O=C(NCc1[nH]nc(-c2ccc(F)cc2)c1-c1ccncc1)Nc1ccccc1OC(F)(F)F           rule met
14  CN(C)c1cccc2c(S(=O)(=O)NCc3[nH]nc(-c4ccc(F)cc4)c3-c3ccncc3)cccc12           rule met
15  O=C(NCc1[nH]nc(-c2ccc(F)cc2)c1-c1ccncc1)Nc1ccc(Oc2ccccc2)cc1       rule not met
16  COc1ccccc1NC(=O)NCc1[nH]nc(-c2ccc(F)cc2)c1-c1ccncc1       rule not met
17  O=C(NCc1[nH]nc(-c2ccc(F)cc2)c1-c1ccncc1)Nc1ccccc1       rule not met
18  O=C(NCc1[nH]nc(-c2ccc(F)cc2)c1-c1ccncc1)Nc1cc(Cl)ccc1Cl       rule not met
19  CCOC(=O)C(C)NC(=O)NCc1[nH]nc(-c2ccc(F)cc2)c1-c1ccncc1 (centres unmarked)           rule met
20  O=C(NCc1[nH]nc(-c2ccc(F)cc2)c1-c1ccncc1)Nc1ccc(OC(F)(F)F)cc1       rule not met
21  CSc1cccc(NC(=O)NCc2[nH]nc(-c3ccc(F)cc3)c2-c2ccncc2)c1       rule not met
22  O=C(NCc1[nH]nc(-c2ccc(F)cc2)c1-c1ccncc1)NC(=O)c1ccccc1           rule met
